Taken from ChEMBL document CHEMBL4837220.

So I've got a bunch of compounds here, and I need their pIC50 values.
# assay_system: GABA transporter 2 (Mus musculus)
# Sequence (P31651 whole entry): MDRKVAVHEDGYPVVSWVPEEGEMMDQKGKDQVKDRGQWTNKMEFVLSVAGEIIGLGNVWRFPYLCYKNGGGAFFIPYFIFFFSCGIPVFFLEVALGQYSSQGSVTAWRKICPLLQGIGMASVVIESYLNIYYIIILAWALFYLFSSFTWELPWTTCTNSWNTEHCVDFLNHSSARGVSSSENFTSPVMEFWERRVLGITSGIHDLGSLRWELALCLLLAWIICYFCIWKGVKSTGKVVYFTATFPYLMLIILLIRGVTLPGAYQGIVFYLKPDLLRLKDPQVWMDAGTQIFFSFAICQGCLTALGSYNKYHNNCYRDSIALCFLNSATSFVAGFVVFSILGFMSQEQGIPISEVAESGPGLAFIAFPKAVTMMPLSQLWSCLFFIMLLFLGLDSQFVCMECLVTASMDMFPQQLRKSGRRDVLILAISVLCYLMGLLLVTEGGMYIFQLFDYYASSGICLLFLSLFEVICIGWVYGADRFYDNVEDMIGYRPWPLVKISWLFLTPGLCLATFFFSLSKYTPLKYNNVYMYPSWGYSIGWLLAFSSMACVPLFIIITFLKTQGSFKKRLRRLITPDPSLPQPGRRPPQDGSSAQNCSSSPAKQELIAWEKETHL
# protocol: Inhibition of mouse GAT2 expressed in human HEK293 cell line assessed as inhibition of [3H]GABA uptake measured after 40 mins by […]
# Assay type: cell-based
// pIC50 is dimensionless: -log10 of concentration (M)

Tested on GABA transporter 2 (Mus musculus): Cc1ccc(CNC(=O)C(CCO)N(C)CCC=C2c3ccccc3-c3ccccc32)cc1 (centres undefined) . Observed pIC50: 4.52

Tested on GABA transporter 2 (Mus musculus): O=C(O)C1=CCCN(CCO/N=C/c2ccccc2-c2ccc(Cl)cc2Cl)C1 . Observed pIC50: 4.31

Tested on GABA transporter 2 (Mus musculus): CN(CCC=C1c2ccccc2-c2ccccc21)C(CCO)C(=O)NCc1ccc(F)cc1 (centres undefined) . Observed pIC50: 4.59

Tested on GABA transporter 2 (Mus musculus): CN(CCC=C1c2ccccc2CCc2ccccc21)C(CCO)C(=O)NCc1ccccc1Cl (centres undefined) . Observed pIC50: 4.96

Tested on GABA transporter 2 (Mus musculus): CC(=O)NCCC(C(=O)NCc1ccccc1Cl)N(C)CCC=C(c1sccc1C)c1sccc1C (centres undefined) . Observed pIC50: 5.35

Tested on GABA transporter 2 (Mus musculus): CN(CCC=C1c2ccccc2CCc2ccccc21)C(CCN)C(=O)NCc1ccccc1Cl (centres undefined) . Observed pIC50: 4.87

Tested on GABA transporter 2 (Mus musculus): CN(CCC=C1c2ccccc2C=Cc2ccccc21)C(CCO)C(=O)NCc1ccc(F)cc1 (centres undefined) . Observed pIC50: 4.99

Tested on GABA transporter 2 (Mus musculus): CN(CCC=C1c2ccccc2CCc2ccccc21)C(CCO)C(=O)NCc1ccc(F)cc1 (centres undefined) . Observed pIC50: 5.24

Tested on GABA transporter 2 (Mus musculus): CC(=O)NCCC(C(=O)NCc1ccc(C)cc1)N(C)CCC=C1c2ccccc2CCc2ccccc21 (centres undefined) . Observed pIC50: 4.81

Tested on GABA transporter 2 (Mus musculus): Cc1ccc(CNC(=O)C(CCN)N(C)CCC=C2c3ccccc3CCc3ccccc32)cc1 (centres undefined) . Observed pIC50: 4.95

Tested on GABA transporter 2 (Mus musculus): CC(=O)NCCC(C(=O)NCc1ccccc1)N(C)CCC=C1c2ccccc2CCc2ccccc21 (centres undefined) . Observed pIC50: 4.43

Tested on GABA transporter 2 (Mus musculus): CN(CCC=C1c2ccccc2C=Cc2ccccc21)C(CCO)C(=O)NCc1ccc(Cl)cc1 (centres undefined) . Observed pIC50: 4.84

Tested on GABA transporter 2 (Mus musculus): CC(=O)NCCC(C(=O)NCc1ccc(Cl)cc1)N(C)CCC=C1c2ccccc2CCc2ccccc21 (centres undefined) . Observed pIC50: 4.32

Tested on GABA transporter 2 (Mus musculus): CN(CCC=C1c2ccccc2CCc2ccccc21)C(CCN)C(=O)NCc1ccccc1 (centres undefined) . Observed pIC50: 5.02

Tested on GABA transporter 2 (Mus musculus): CN(CCC=C1c2ccccc2CCc2ccccc21)C(CCN)C(=O)NCc1ccc(F)cc1 (centres undefined) . Observed pIC50: 4.93

Tested on GABA transporter 2 (Mus musculus): CN(CCC=C1c2ccccc2-c2ccccc21)C(CCO)C(=O)NCc1ccccc1 (centres undefined) . Observed pIC50: 4.75

Tested on GABA transporter 2 (Mus musculus): CN(CCC=C1c2ccccc2-c2ccccc21)C(CCO)C(=O)NCc1ccc(Cl)cc1 (centres undefined) . Observed pIC50: 4.49

Tested on GABA transporter 2 (Mus musculus): Cc1ccc(CNC(=O)C(CCO)N(C)CCC=C2c3ccccc3CCc3ccccc32)cc1 (centres undefined) . Observed pIC50: 5.34

Tested on GABA transporter 2 (Mus musculus): CN(CCC=C1c2ccccc2CCc2ccccc21)C(CCO)C(=O)NCc1ccccc1 (centres undefined) . Observed pIC50: 5.04

Tested on GABA transporter 2 (Mus musculus): CN(CCC=C1c2ccccc2C=Cc2ccccc21)C(CCO)C(=O)NCc1ccccc1Cl (centres undefined) . Observed pIC50: 5.17

Tested on GABA transporter 2 (Mus musculus): CC(=O)NCCC(C(=O)NCc1ccc(F)cc1)N(C)CCC=C1c2ccccc2CCc2ccccc21 (centres undefined) . Observed pIC50: 4.71

Tested on GABA transporter 2 (Mus musculus): CC(=O)NCCC(C(=O)NCc1ccccc1Cl)N(C)CCC=C1c2ccccc2CCc2ccccc21 (centres undefined) . Observed pIC50: 4.58

Tested on GABA transporter 2 (Mus musculus): CN(CCC=C1c2ccccc2-c2ccccc21)C(CCO)C(=O)NCc1ccccc1Cl (centres undefined) . Observed pIC50: 4.59

Tested on GABA transporter 2 (Mus musculus): CN(CCC=C(c1ccccc1)c1ccccc1)C(CCO)C(=O)NCc1ccccc1Cl (centres undefined) . Observed pIC50: 4.90
